System: HIF-1-mediated transcription
Assay: HIF-1-mediated transcription under hypoxia, LN229-HRE-Lux luciferase reporter assay
Type: cell-based, human
Details: Homo sapiens, 24 h, Table 5; LN229-HRE-Lux cells, hypoxia (1% O2)
Procedure: The synthesized analogues were evaluated for their potential to inhibit HIF-1-mediated transcription under hypoxia (1% O2) using a human glioma cell line LN229-HRE-Lux, which stably expresses a hypoxia-responsive luciferase reporter gene (Table 1-9). […] The compounds were tested in single (n=1) or multiple (n>1) independent experiments each carried out in quadruplicate. LN229-HRE-luciferase human glioblastoma cells were used to perform the assay. […]
pIC50: −log10 of the molar value.
QUANTITY NAME: pIC50

>>> data_value("COc1ccc(S(=O)(=O)N(Cc2ccc3c(c2)CC(C)(C)O3)C2CCCCC2)cc1OC [Compound 16e]")
5.09

Where these numbers come from: patent US9062072B2
